# Study system: 5-hydroxytryptamine receptor 2A (Homo sapiens)
# Experiment notes: biochemical
# Type: cell-based, HEK293
pKi: −log10 of the molar value.
Quantity measured: pKi

- Molecule: "CCOC(=O)[C@@H]1CN(CCn2c(=O)[nH]c3ccccc3c2=O)CC[C@@H]1c1cccs1 (racemic)"
  Quantity measured: "pKi"
  Result: "< 5.03"
- Molecule: "CCOC(=O)[C@@H]1CN(CCn2c(=O)[nH]c3ccccc3c2=O)CC[C@@H]1c1ccccc1 (racemic)"
  Quantity measured: "pKi"
  Result: "< 5.00"
- Molecule: "CCOC(=O)[C@@H]1CN(CCn2c(=O)[nH]c3ccccc3c2=O)CC[C@@H]1c1ccc(N(C)C)cc1 (racemic)"
  Quantity measured: "pKi"
  Result: "< 5.00"
- Molecule: "CCOC(=O)[C@@H]1CN(CCn2c(=O)[nH]c3ccccc3c2=O)CC[C@@H]1c1ccc(C(F)(F)F)cc1 (racemic)"
  Quantity measured: "pKi"
  Result: "< 5.00"

----------
# Study system: UniProt Q8BRU6
# Sequence (Q8BRU6 whole entry): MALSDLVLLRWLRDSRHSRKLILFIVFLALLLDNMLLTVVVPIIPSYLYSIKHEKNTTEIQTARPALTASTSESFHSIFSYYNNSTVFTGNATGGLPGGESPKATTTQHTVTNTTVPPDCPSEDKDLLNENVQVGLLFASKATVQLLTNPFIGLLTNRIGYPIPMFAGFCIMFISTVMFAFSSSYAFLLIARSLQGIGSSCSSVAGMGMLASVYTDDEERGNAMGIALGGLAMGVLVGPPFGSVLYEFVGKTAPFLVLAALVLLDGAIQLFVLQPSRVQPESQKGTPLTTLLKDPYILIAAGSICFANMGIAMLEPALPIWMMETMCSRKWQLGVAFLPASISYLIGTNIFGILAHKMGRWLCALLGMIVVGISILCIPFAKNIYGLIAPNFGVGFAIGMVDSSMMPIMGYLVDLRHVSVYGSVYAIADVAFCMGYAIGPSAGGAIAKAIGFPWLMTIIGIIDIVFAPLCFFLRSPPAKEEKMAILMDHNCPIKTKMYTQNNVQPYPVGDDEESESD
# Experiment notes: Inhibition of VMAT2 in C57Bl/6J mouse striatal membranes assessed as reduction in [3H[-5HT uptake pre-incubated for 10 mins before [3H[-5HT addition and measured after 8 mins
// assign y if IC50 falls strictly below 10 nM, else n (ties count as n)

- Molecule: "CCOC(=O)C1CN(CCn2c(=O)[nH]c3ccccc3c2=O)CCC1c1ccc(F)cc1 (single isomer, unassigned; (+))"
  Study system: "UniProt Q8BRU6"
  Classification: "y"
- Molecule: "CCOC(=O)[C@@H]1CN(CCn2c(=O)[nH]c3ccccc3c2=O)CC[C@@H]1c1cccs1 (racemic)"
  Study system: "UniProt Q8BRU6"
  Classification: "n"
- Molecule: "CCOC(=O)C1CN(CCn2c(=O)[nH]c3ccccc3c2=O)CCC1c1ccc(F)cc1 (single isomer, unassigned; (-))"
  Study system: "UniProt Q8BRU6"
  Classification: "y"
- Molecule: "COC(=O)[C@H]1[C@H]2C[C@@H]3c4[nH]c5cc(OC)ccc5c4CCN3C[C@H]2C[C@@H](OC(=O)c2cc(OC)c(OC)c(OC)c2)[C@@H]1OC [RESERPINE]"
  Study system: "UniProt Q8BRU6"
  Classification: "y"
- Molecule: "COc1cc2c(cc1OC)C1CC(O)C(CC(C)C)CN1CC2 (stereo not drawn)"
  Study system: "UniProt Q8BRU6"
  Classification: "n"
- Molecule: "CCOC(=O)[C@@H]1CN(CCn2c(=O)[nH]c3ccccc3c2=O)CC[C@@H]1c1ccccc1 (racemic)"
  Study system: "UniProt Q8BRU6"
  Classification: "y"
- Molecule: "CCOC(=O)[C@@H]1CN(CCn2c(=O)[nH]c3ccccc3c2=O)CC[C@@H]1c1ccc(F)cc1 (racemic)"
  Study system: "UniProt Q8BRU6"
  Classification: "y"
- Molecule: "O=C(c1ccc(F)cc1)C1CCN(CCn2c(=O)[nH]c3ccccc3c2=O)CC1 [KETANSERIN]"
  Study system: "UniProt Q8BRU6"
  Classification: "n"
- Molecule: "CN1[C@@H](CC(=O)c2ccccc2)CCC[C@H]1C[C@H](O)c1ccccc1 [LOBELINE]"
  Study system: "UniProt Q8BRU6"
  Classification: "n"
- Molecule: "CNC(C)Cc1ccccc1 (stereo not drawn)"
  Study system: "UniProt Q8BRU6"
  Classification: "n"
- Molecule: "CCC1(O)CC2c3cc(OC)c(OC)cc3CCN2CC1CC(C)C (stereo not drawn)"
  Study system: "UniProt Q8BRU6"
  Classification: "n"
- Molecule: "CCOC(=O)[C@@H]1CN(CCn2c(=O)[nH]c3ccccc3c2=O)CC[C@H]1c1ccc(F)cc1 (racemic)"
  Study system: "UniProt Q8BRU6"
  Classification: "n"
- Molecule: "CCOC(=O)[C@@H]1CN(CCn2c(=O)[nH]c3ccccc3c2=O)CC[C@@H]1c1cccc(C(F)(F)F)c1 (racemic)"
  Study system: "UniProt Q8BRU6"
  Classification: "n"

----------
# Study system: Synaptic vesicular amine transporter (Homo sapiens, UniProt Q05940)
# Sequence (Q05940 whole entry): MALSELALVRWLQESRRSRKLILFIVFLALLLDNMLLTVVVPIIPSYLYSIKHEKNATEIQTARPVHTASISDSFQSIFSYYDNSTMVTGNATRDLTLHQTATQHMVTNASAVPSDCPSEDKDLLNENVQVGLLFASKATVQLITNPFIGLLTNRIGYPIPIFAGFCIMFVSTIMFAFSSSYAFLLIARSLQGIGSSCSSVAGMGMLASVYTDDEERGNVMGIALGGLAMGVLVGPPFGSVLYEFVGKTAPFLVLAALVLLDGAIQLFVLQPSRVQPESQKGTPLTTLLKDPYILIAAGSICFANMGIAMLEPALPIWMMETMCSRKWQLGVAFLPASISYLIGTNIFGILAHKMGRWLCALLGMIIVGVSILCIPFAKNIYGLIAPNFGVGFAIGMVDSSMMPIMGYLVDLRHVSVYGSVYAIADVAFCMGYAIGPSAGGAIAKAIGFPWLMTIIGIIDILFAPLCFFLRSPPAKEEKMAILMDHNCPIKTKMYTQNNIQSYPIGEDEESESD
# Experiment notes: Displacement of [3H](+)-syn-Ethyl 1-(2-(2,4-Dioxo-1,2-dihydroquinazolin-3(4H)-yl)ethyl)-4-(4-fluorophenyl)piperidine-3-carboxylate from human VMAT2 expressed in HEK293 cell membranes incubated for 60 mins by scintillation counting method
pKi: −log10 of the molar value.
Quantity measured: pKi

- Compound: "CCOC(=O)[C@@H]1CN(CCn2c(=O)[nH]c3ccccc3c2=O)CC[C@@H]1c1cccs1 (racemic)"
  Numeric result: 6.05
- Compound: "CCOC(=O)[C@@H]1CN(CCn2c(=O)[nH]c3ccccc3c2=O)CC[C@@H]1c1ccccc1 (racemic)"
  Numeric result: 6.54
- Compound: "CCOC(=O)[C@@H]1CN(CCn2c(=O)[nH]c3ccccc3c2=O)CC[C@@H]1c1ccc(C)cc1 (racemic)"
  Numeric result: 6.34
- Compound: "O=C(c1ccc(F)cc1)C1CCN(CCn2c(=O)[nH]c3ccccc3c2=O)CC1"
  Numeric result: 5.92
- Compound: "CCOC(=O)[C@@H]1CN(CCn2c(=O)[nH]c3ccccc3c2=O)CC[C@@H]1c1ccc(-c2ccccc2)cc1 (racemic)"
  Numeric result: 5.42
- Compound: "CCC1(O)CC2c3cc(OC)c(OC)cc3CCN2CC1CC(C)C (stereo unspecified)"
  Numeric result: 5.71

----------
# Study system: Synaptic vesicular amine transporter (Homo sapiens)
# Experiment notes: Displacement of [3H](+)-syn-Ethyl 1-(2-(2,4-Dioxo-1,2-dihydroquinazolin-3(4H)-yl)ethyl)-4-(4-fluorophenyl)piperidine-3-carboxylate from human VMAT2 expressed in HEK293 cell membranes incubated for 60 mins by scintillation counting method
pKi: −log10 of the molar value.
// pKi lookup, one value per entry

- Compound: "CCOC(=O)[C@@H]1CN(CCn2c(=O)[nH]c3ccccc3c2=O)CC[C@@H]1c1ccc(N(C)C)cc1 (racemic)"
  pKi: 5.71
- Compound: "CCOC(=O)[C@@H]1CN(CCn2c(=O)[nH]c3ccccc3c2=O)CC[C@@H]1c1cccc(C(F)(F)F)c1 (racemic)"
  pKi: 6.46
- Compound: "CN1[C@@H](CC(=O)c2ccccc2)CCC[C@H]1C[C@H](O)c1ccccc1 [LOBELINE]"
  pKi: 5.71
- Compound: "CNC(C)Cc1ccccc1 (stereo not given)"
  pKi: 4.61
- Compound: "CCOC(=O)[C@@H]1CN(CCn2c(=O)[nH]c3ccccc3c2=O)CC[C@@H]1c1ccc(C(F)(F)F)cc1 (racemic)"
  pKi: 6.14

----------
# Study system: 5-hydroxytryptamine receptor 2A (Homo sapiens, UniProt P28223)
# Sequence (P28223 whole entry): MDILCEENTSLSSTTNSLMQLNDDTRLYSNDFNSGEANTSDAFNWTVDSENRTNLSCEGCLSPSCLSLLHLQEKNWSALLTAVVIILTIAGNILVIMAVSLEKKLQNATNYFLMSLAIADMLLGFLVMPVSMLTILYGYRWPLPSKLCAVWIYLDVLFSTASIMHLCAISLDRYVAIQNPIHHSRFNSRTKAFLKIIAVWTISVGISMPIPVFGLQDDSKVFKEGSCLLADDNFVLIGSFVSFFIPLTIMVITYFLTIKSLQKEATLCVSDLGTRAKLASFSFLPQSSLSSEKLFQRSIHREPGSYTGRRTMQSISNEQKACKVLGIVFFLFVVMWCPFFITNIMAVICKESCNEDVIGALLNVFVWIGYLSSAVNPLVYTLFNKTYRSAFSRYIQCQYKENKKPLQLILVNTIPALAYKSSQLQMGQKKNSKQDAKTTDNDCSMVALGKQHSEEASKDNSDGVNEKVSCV
# Experiment notes: biochemical
# Assay type: cell-based, HEK293
# Study conditions: hek293
pKi: −log10 of the molar value.
Quantity measured: pKi

- Molecule: "CCOC(=O)C1CN(CCn2c(=O)[nH]c3ccccc3c2=O)CCC1c1ccc(F)cc1 (single isomer, unassigned; (-))"
  Result: "< 5.00"
